# Assayed target: Bifunctional dihydrofolate reductase-thymidylate synthase (Toxoplasma gondii, UniProt Q07422)
# Protocol details: Inhibition of Toxoplasma gondii DHFR by spectrophotometric assay
Readout type: pIC50
Note on units: pIC50 is unitless, being -log10 of a concentration expressed in mol/L.

[[record]]
line_notation = "CCn1c2ccccc2c2cc(N(C)Cc3coc4nc(N)nc(N)c34)ccc21"
numeric_result = 4.65


get_value(item= Nc1nc(N)c2c(CCCc3ccc(OCc4ccccc4)cc3)c[nH]c2n1 , readout=pIC50) returns 5.80

get_value(item= Nc1nc(N)c2c(CSc3cccc4c3CCCC4)c[nH]c2n1 , readout=pIC50) returns 6.09

get_value(item= Nc1nc(N)c2c(CSc3cccc(-c4ccccc4)c3)coc2n1 , readout=pIC50) returns 4.64

* * *

# Assayed target: Dihydrofolate reductase (Rattus norvegicus, UniProt Q920D2)
# Sequence (Q920D2 whole entry): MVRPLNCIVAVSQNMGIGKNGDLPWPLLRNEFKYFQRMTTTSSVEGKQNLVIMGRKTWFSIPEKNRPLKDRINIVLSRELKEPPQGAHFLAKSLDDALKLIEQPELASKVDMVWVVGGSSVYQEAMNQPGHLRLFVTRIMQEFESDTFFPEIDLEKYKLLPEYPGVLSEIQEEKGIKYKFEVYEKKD
# Protocol details: Inhibition of rat liver DHFR by spectrophotometric assay
Entries annotated with measured pIC50
Note on units: pIC50 is unitless, being -log10 of a concentration expressed in mol/L.

[[record]]
line_notation = "Cc1[nH]c2nc(N)nc(N)c2c1Sc1ccc(Cl)cc1"
numeric_result = 4.43

[[record]]
line_notation = "Nc1nc(N)c2c(CSc3cccc(-c4ccccc4)c3)coc2n1"
numeric_result = 4.51

[[record]]
line_notation = "Nc1nc(N)c2c(CCCc3ccc(OCc4ccccc4)cc3)c[nH]c2n1"
numeric_result = 6.18


get_value(item= Nc1nc(N)c2c(CSc3ccc(-c4ccccc4)cc3)coc2n1 , readout=pIC50) returns 3.45

get_value(item= Nc1nc(N)c2c(CNc3cccc4c3CCCC4)c[nH]c2n1 , readout=pIC50) returns 4.23

get_value(item= Nc1nc(N)c2c(CCCc3cc(Cl)ccc3Cl)c[nH]c2n1 , readout=pIC50) returns 5.32

get_value(item= CCn1c2ccccc2c2cc(NCc3coc4nc(N)nc(N)c34)ccc21 , readout=pIC50) returns 4.90

get_value(item= Nc1nc(N)c2c(CSc3ccc4c(c3)CCCC4)c[nH]c2n1 , readout=pIC50) returns 4.08

get_value(item= COc1cc(CCCc2c[nH]c3nc(N)nc(N)c23)cc(OC)c1OC , readout=pIC50) returns 5.32

get_value(item= Nc1nc(N)c2c(CCCc3ccccc3)c[nH]c2n1 , readout=pIC50) returns 5.07

get_value(item= Nc1nc(N)c2c(CSc3cccc(Oc4ccccc4)c3)coc2n1 , readout=pIC50) returns 4.41

get_value(item= Cc1[nH]c2nc(N)nc(N)c2c1Sc1cccc2c1CCCC2 , readout=pIC50) returns 4.40

get_value(item= Nc1nc(N)c2c(CSc3cccc4c3CCCC4)c[nH]c2n1 , readout=pIC50) returns 5.52

get_value(item= Nc1nc(N)c2c(CSc3ccc(Oc4ccccc4)cc3)coc2n1 , readout=pIC50) returns 4.19

* * *

# Assayed target: UniProt Q920D2
# Protocol details: Inhibition of rat liver DHFR using dihydrofolic acid substrate and NADPH cofactor by spectrophotometric assay
Readout type: IC50 (µM)
Report only the number, with the unit µM understood.

[[record]]
line_notation = "Cc1cccc(C)c1Sc1[nH]c2nc(N)nc(N)c2c1C"
assayed_target = "UniProt Q920D2"
readout_type = "IC50"
numeric_result = 0.388

[[record]]
line_notation = "Cc1c(Sc2cc(Cl)c(Cl)cc2Cl)[nH]c2nc(N)nc(N)c12"
assayed_target = "UniProt Q920D2"
readout_type = "IC50"
numeric_result = 3

[[record]]
line_notation = "Cc1c(Sc2ccc3ccccc3c2)[nH]c2nc(N)nc(N)c12"
assayed_target = "UniProt Q920D2"
readout_type = "IC50"
numeric_result = 8.1


get_value(item= Cc1cc(C)cc(Sc2[nH]c3nc(N)nc(N)c3c2C)c1 , readout=IC50) returns 7.6

* * *

Entries annotated with measured pIC50
# Assayed target: Bifunctional dihydrofolate reductase-thymidylate synthase (Toxoplasma gondii)
# Protocol details: Inhibition of Toxoplasma gondii DHFR by spectrophotometric assay
Note on units: pIC50 is unitless, being -log10 of a concentration expressed in mol/L.

These recorded examples may help you get a feel for the data.
[[record]]
molecule = "Nc1nc(N)c2c(CCCc3ccccc3)c[nH]c2n1"
readout_type = "pIC50"
numeric_result = 5.57

[[record]]
molecule = "Cc1[nH]c2nc(N)nc(N)c2c1Sc1ccc(Cl)cc1Cl"
readout_type = "pIC50"
numeric_result = 4.55

[[record]]
molecule = "Nc1nc(N)c2c(CSc3ccc4c(c3)CCCC4)c[nH]c2n1"
readout_type = "pIC50"
numeric_result = 5.04

[[record]]
molecule = "Cc1[nH]c2nc(N)nc(N)c2c1Sc1ccccc1"
readout_type = "pIC50"
numeric_result = 4.09

[[record]]
molecule = "COc1ccc(OC)c(Sc2c(C)[nH]c3nc(N)nc(N)c23)c1"
readout_type = "pIC50"
numeric_result = 4.06

[[record]]
molecule = "CCn1c2ccccc2c2cc(NCc3coc4nc(N)nc(N)c34)ccc21"
readout_type = "pIC50"
numeric_result = 5.35


get_value(item= Nc1nc(N)c2c(CNc3ccc4c(c3)C(O)c3ccccc3-4)coc2n1 (stereo unspecified) , readout=pIC50) returns 4.20

* * *

# Assayed target: Dihydrofolate reductase (Rattus norvegicus, UniProt Q920D2)
# Protocol details: Inhibition of rat liver DHFR by spectrophotometric assay
Readout type: IC50 (µM)
Report only the number, with the unit µM understood.

These recorded examples may help you get a feel for the data.
[[record]]
line_notation = "Cc1[nH]c2nc(N)nc(N)c2c1Sc1ccc(Cl)cc1Cl"
numeric_result = 34.6

[[record]]
line_notation = "COc1ccc(OC)c(CCCc2c[nH]c3nc(N)nc(N)c23)c1"
numeric_result = 11.8

[[record]]
line_notation = "Nc1nc(N)c2c(CCCc3ccc4c(c3)CCCC4)c[nH]c2n1"
numeric_result = 1.09

[[record]]
line_notation = "Nc1nc(N)c2c(CSc3ccccc3-c3ccccc3)coc2n1"
numeric_result = 49

[[record]]
line_notation = "Nc1nc(N)c2c(CSc3ccccc3Oc3ccccc3)coc2n1"
numeric_result = 18

[[record]]
line_notation = "CCn1c2ccccc2c2cc(N(C)Cc3coc4nc(N)nc(N)c34)ccc21"
numeric_result = 24.7


# ---- query compound ----
get_value(item= Cc1[nH]c2nc(N)nc(N)c2c1Sc1cccc(Cl)c1 , readout=IC50) returns 64

* * *

# Assayed target: Bifunctional dihydrofolate reductase-thymidylate synthase (Toxoplasma gondii, UniProt Q07422)
# Sequence (Q07422 whole entry): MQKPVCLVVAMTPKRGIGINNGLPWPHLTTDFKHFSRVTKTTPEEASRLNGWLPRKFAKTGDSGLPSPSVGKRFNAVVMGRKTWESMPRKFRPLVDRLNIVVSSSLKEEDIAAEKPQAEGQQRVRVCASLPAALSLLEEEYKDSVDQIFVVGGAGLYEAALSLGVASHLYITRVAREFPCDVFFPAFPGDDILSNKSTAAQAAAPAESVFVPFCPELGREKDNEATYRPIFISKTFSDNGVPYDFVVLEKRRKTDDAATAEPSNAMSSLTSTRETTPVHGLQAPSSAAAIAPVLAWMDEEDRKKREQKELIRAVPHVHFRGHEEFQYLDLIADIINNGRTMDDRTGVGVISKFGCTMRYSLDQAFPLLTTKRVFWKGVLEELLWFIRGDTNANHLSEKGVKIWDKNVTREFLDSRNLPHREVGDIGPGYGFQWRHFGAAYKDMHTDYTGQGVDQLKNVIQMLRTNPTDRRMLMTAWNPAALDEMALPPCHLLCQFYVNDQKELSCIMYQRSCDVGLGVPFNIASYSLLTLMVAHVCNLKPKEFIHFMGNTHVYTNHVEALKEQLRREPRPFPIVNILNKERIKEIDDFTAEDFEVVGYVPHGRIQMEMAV
# Protocol details: Inhibition of Toxoplasma gondii DHFR by spectrophotometric assay
Entries annotated with measured IC50
Report only the number, with the unit µM understood.

[[record]]
line_notation = "Nc1nc(N)c2c(CSc3cccc(Oc4ccccc4)c3)coc2n1"
unit_label = "µM"
numeric_result = 19

[[record]]
line_notation = "Nc1nc(N)c2c(CSc3ccc(-c4ccccc4)cc3)coc2n1"
unit_label = "µM"
numeric_result = 79

[[record]]
line_notation = "Nc1nc(N)c2c(CSc3ccccc3-c3ccccc3)coc2n1"
unit_label = "µM"
numeric_result = 105


# ---- query compound ----
get_value(item= Nc1nc(N)c2c(CSc3ccccc3Oc3ccccc3)coc2n1 , readout=IC50) returns 38

* * *

# Assayed target: Dihydrofolate reductase (Rattus norvegicus)
# Protocol details: Inhibition of rat liver DHFR by spectrophotometric assay
pIC50: −log10 of the molar value.
Entries annotated with measured pIC50

[[record]]
compound = "COc1ccc(OC)c(NCc2nc3c(N)nc(N)nc3[nH]2)c1"
result = "< 4.54"


get_value(item= COc1ccc(-c2nc3nc(N)nc(N)c3[nH]2)c([N+](=O)[O-])c1OC , readout=pIC50) returns < 4.60

get_value(item= Nc1nc(N)c2c(CNc3cccc4cc5ccccc5cc34)coc2n1 , readout=pIC50) returns < 4.29

get_value(item= COc1ccc(OC)c(Sc2c(C)[nH]c3nc(N)nc(N)c23)c1 , readout=pIC50) returns < 4.34

get_value(item= Nc1nc(N)c2c(CNc3ccc4c(c3)C(O)c3ccccc3-4)coc2n1 (configuration not stated) , readout=pIC50) returns < 4.89

get_value(item= Nc1nc(N)c2c(CNc3ccc4c(c3)Cc3ccccc3-4)coc2n1 , readout=pIC50) returns < 5.00

get_value(item= Cc1[nH]c2nc(N)nc(N)c2c1Sc1ccccc1 , readout=pIC50) returns < 4.48
